- assay procedure: Dynamic light scattering (DLS) of nanoparticles
- Assay type: physicochemical
- measurement setup: siRNA-aNPs containing the polyvalent material (Table S3); SD over individual repeats
Values of DLS Hydrodynamic diameter (number mean) greater than or equal to 60 nm map to TRUE; values below map to FALSE.

- compound: "CCCCCCCCC(O)CN(CCCN(C)CCCN(CC(O)CCCCCCCC)CC(O)CCCCCCCC)CC(O)CCCCCCCC (mixture of isomers)"
  assigned label: "TRUE"
- compound: "CCCCCCCCC(O)CN(CCCN(CC(O)CCCCCCCC)CC(O)CCCCCCCC)CCCN(CC(O)CCCCCCCC)CC(O)CCCCCCCC (mixture of isomers)"
  assigned label: "FALSE"
- compound: "CCCCCCCCCCCCCCOC(=O)CCN(C)CCCN(CCCCN(CCCN(C)CCC(=O)OCCCCCCCCCCCCCC)CCCN(C)CCC(=O)OCCCCCCCCCCCCCC)CCCN(C)CCC(=O)OCCCCCCCCCCCCCC"
  assigned label: "TRUE"
- compound: "CCCCCCCCC(O)CN(CCN(CC(O)CCCCCCCC)CC(O)CCCCCCCC)CCN(CC(O)CCCCCCCC)CC(O)CCCCCCCC (mixture of isomers)"
  assigned label: "TRUE"
- compound: "CCCCCCCCOC(=O)CCN(CCCN(CCCCN(CCCN(CCC(=O)OCCCCCCCC)CCC(=O)OCCCCCCCC)CCCN(CCC(=O)OCCCCCCCC)CCC(=O)OCCCCCCCC)CCCN(CCC(=O)OCCCCCCCC)CCC(=O)OCCCCCCCC)CCC(=O)OCCCCCCCC"
  assigned label: "FALSE"
- compound: "CC(C)CCCCCCCOC(=O)CCN(CCCN(CCCCN(CCCN(CCC(=O)OCCCCCCCC(C)C)CCC(=O)OCCCCCCCC(C)C)CCCN(CCC(=O)OCCCCCCCC(C)C)CCC(=O)OCCCCCCCC(C)C)CCCN(CCC(=O)OCCCCCCCC(C)C)CCC(=O)OCCCCCCCC(C)C)CCC(=O)OCCCCCCCC(C)C"
  assigned label: "FALSE"
- compound: "CCCCCCCCCCCCCCOC(=O)CCN(CCCN(CCCCN(CCCN(CCC(=O)OCCCCCCCCCCCCCC)CCC(=O)OCCCCCCCCCCCCCC)CCCN(CCC(=O)OCCCCCCCCCCCCCC)CCC(=O)OCCCCCCCCCCCCCC)CCCN(CCC(=O)OCCCCCCCCCCCCCC)CCC(=O)OCCCCCCCCCCCCCC)CCC(=O)OCCCCCCCCCCCCCC"
  assigned label: "FALSE"
- compound: "CCCCCCCCCCCCCCOC(=O)CCN(CCCN(CCCCN(CCCN(CCC(=O)OCCCCCCCCCCCCCC)C(C)=O)CCCN(CCC(=O)OCCCCCCCCCCCCCC)C(C)=O)CCCN(CCC(=O)OCCCCCCCCCCCCCC)C(C)=O)C(C)=O"
  assigned label: "TRUE"

###

- assay procedure: Dynamic light scattering (DLS) of nanoparticles
- Assay type: physicochemical
- measurement setup: siRNA-aNPs containing the polyvalent material (Table S3); SD over individual repeats
compounds and their reported DLS PDI
measurement label: DLS PDI

- compound: "CCCCCCCCC(O)CN(CCCN(C)CCCN(CC(O)CCCCCCCC)CC(O)CCCCCCCC)CC(O)CCCCCCCC (mixture of isomers)"
  measurement label: "DLS PDI"
  result: 0.18
- compound: "CCCCCCCCOC(=O)CCN(CCCN(CCCCN(CCCN(CCC(=O)OCCCCCCCC)CCC(=O)OCCCCCCCC)CCCN(CCC(=O)OCCCCCCCC)CCC(=O)OCCCCCCCC)CCCN(CCC(=O)OCCCCCCCC)CCC(=O)OCCCCCCCC)CCC(=O)OCCCCCCCC"
  measurement label: "DLS PDI"
  result: 0.16
- compound: "CCCCCCCCC(O)CN(CCCN(CC(O)CCCCCCCC)CC(O)CCCCCCCC)CCCN(CC(O)CCCCCCCC)CC(O)CCCCCCCC (mixture of isomers)"
  measurement label: "DLS PDI"
  result: 0.2
- compound: "CCCCCCCCCCC(O)CN(CCCN(CCCCN(CCCN(CC(O)CCCCCCCCCC)CC(O)CCCCCCCCCC)CCCN(CC(O)CCCCCCCCCC)CC(O)CCCCCCCCCC)CCCN(CC(O)CCCCCCCCCC)CC(O)CCCCCCCCCC)CC(O)CCCCCCCCCC (mixture of isomers)"
  measurement label: "DLS PDI"
  result: 0.10
- compound: "CC(C)CCCCCCCOC(=O)CCN(CCCN(CCCCN(CCCN(CCC(=O)OCCCCCCCC(C)C)CCC(=O)OCCCCCCCC(C)C)CCCN(CCC(=O)OCCCCCCCC(C)C)CCC(=O)OCCCCCCCC(C)C)CCCN(CCC(=O)OCCCCCCCC(C)C)CCC(=O)OCCCCCCCC(C)C)CCC(=O)OCCCCCCCC(C)C"
  measurement label: "DLS PDI"
  result: 0.14
- compound: "CCCCCCCCCCCCCCOC(=O)CCN(CCCN(CCCCN(CCCN(CCC(=O)OCCCCCCCCCCCCCC)C(C)=O)CCCN(CCC(=O)OCCCCCCCCCCCCCC)C(C)=O)CCCN(CCC(=O)OCCCCCCCCCCCCCC)C(C)=O)C(C)=O"
  measurement label: "DLS PDI"
  result: 0.09
- compound: "CCCCCCCCCCCCCCOC(=O)CCN(CCCN(CCCCN(CCCN(CCC(=O)OCCCCCCCCCCCCCC)CCC(=O)OCCCCCCCCCCCCCC)CCCN(CCC(=O)OCCCCCCCCCCCCCC)CCC(=O)OCCCCCCCCCCCCCC)CCCN(CCC(=O)OCCCCCCCCCCCCCC)CCC(=O)OCCCCCCCCCCCCCC)CCC(=O)OCCCCCCCCCCCCCC"
  measurement label: "DLS PDI"
  result: 0.14
- compound: "CCCCCCCCOC(=O)CCN(CCCN(C)CCCN(CCC(=O)OCCCCCCCC)CCC(=O)OCCCCCCCC)CCC(=O)OCCCCCCCC"
  measurement label: "DLS PDI"
  result: 0.14
- compound: "CCCCCCCCCCCCCCOC(=O)CCN(C)CCCN(CCCCN(CCCN(C)CCC(=O)OCCCCCCCCCCCCCC)CCCN(C)CCC(=O)OCCCCCCCCCCCCCC)CCCN(C)CCC(=O)OCCCCCCCCCCCCCC"
  measurement label: "DLS PDI"
  result: 0.45
- compound: "CCCCCCCCC(O)CN(CCN(CC(O)CCCCCCCC)CC(O)CCCCCCCC)CCN(CC(O)CCCCCCCC)CC(O)CCCCCCCC (mixture of isomers)"
  measurement label: "DLS PDI"
  result: 0.2

###

Each record here notes measured DLS Hydrodynamic diameter (number mean).
- assay procedure: Dynamic light scattering (DLS) of nanoparticles
- Format: physicochemical
- measurement setup: siRNA-aNPs containing the polyvalent material (Table S3); SD over individual repeats

- molecule: "CCCCCCCCOC(=O)CCN(CCCN(C)CCCN(CCC(=O)OCCCCCCCC)CCC(=O)OCCCCCCCC)CCC(=O)OCCCCCCCC"
  DLS Hydrodynamic diameter (number mean) [nm]: 136
- molecule: "CCCCCCCCCCC(O)CN(CCCN(CCCCN(CCCN(CC(O)CCCCCCCCCC)CC(O)CCCCCCCCCC)CCCN(CC(O)CCCCCCCCCC)CC(O)CCCCCCCCCC)CCCN(CC(O)CCCCCCCCCC)CC(O)CCCCCCCCCC)CC(O)CCCCCCCCCC (mixture of isomers)"
  DLS Hydrodynamic diameter (number mean) [nm]: 55
